run-conditions: 25 °C
Record form. Attribute: solubility. Fill in for each entry.
One number for each entry, in nM.

In the examples that follow, each entry is paired with its recorded solubility.
// field: solubility; key: Clc1ccc(Cl)c(-c2c(Cl)cc(Cl)c(Cl)c2Cl)c1 ; value = 9.77

// field: solubility; key: Clc1ccc(Cl)c(-c2c(Cl)c(Cl)c(Cl)c(Cl)c2Cl)c1Cl ; value = 0.794

// field: solubility; key: Clc1cc(Cl)c(-c2c(Cl)c(Cl)c(Cl)c(Cl)c2Cl)c(Cl)c1 ; value = 0.331

Consider the following items and state reported solubility for each.
1. Clc1cc(Cl)c(-c2ccc(Cl)c(Cl)c2Cl)c(Cl)c1
2. Clc1cc(-c2cc(Cl)c(Cl)c(Cl)c2)cc(Cl)c1Cl

1: 5.76; 2: 1.41

// field: solubility; key: Clc1ccc(-c2cc(Cl)cc(Cl)c2Cl)cc1 ; value = 170
